# Lookup of reported GI50 keyed by entry
system: SK-MEL-2; test: NCI tumour cell line growth inhibition, 48 h
Calls of active or inactive are those of the source. Cut-off read from the data, not from the text of the source: active = GI50 up to about 1.1 µM and inactive = higher.

Would you please look over these solved cases?
- compound: "O=C(O)c1c2c(cc3c(=O)c4ccccc4[nH]c13)CCCC2"
  reported: "> 100 µM (inactive)"
- compound: "COC(=O)C(=O)C(CC(=O)Nc1c(C)cccc1C)C(=O)OC (stereo not given)"
  reported: "> 100 µM (inactive)"
- compound: "O=S(=O)(N/N=C/c1ccc(Cl)cc1Cl)c1ccccc1"
  reported: "> 100 µM (inactive)"
- compound: "O=C1/C(=C2\\Sc3c(ccc(Cl)c3Cl)C2=O)Sc2c1ccc(Cl)c2Cl"
  reported: "> 100 µM (inactive)"
- compound: "C[C@]12OC[C@H](c3ccccc3)N1C(=O)C1[C@H]2CC12SCCS2 (stereo not given in full)"
  reported: "> 100 µM (inactive)"

Exercise: Give GI50 for the following compound: O=C(CC1(O)C(=O)Nc2ccccc21)c1ccccc1Cl (stereo not given)
Solution: > 100 µM (inactive)

Exercise: Give GI50 for the following compound: `CCOC(=O)c1[nH]c2cc(OC)c(OC)cc2c1CN(C)C`
Solution: > 100 µM (inactive)

Exercise: Give GI50 for the following compound: CC(=O)c1c(-c2ccc(Cl)cc2)c(C#N)c(=S)n(C2OC(CO)C(O)C(O)C2O)c1C (stereo not given)
Solution: 28.2 µM (inactive)

Exercise: Give GI50 for the following compound: NC(N)NCCCc1cn2c(n1)C1CCCN1C(=O)C2Cc1ccccc1 (stereo not given)
Solution: > 100 µM (inactive)

Exercise: Give GI50 for the following compound: `Clc1ccc(-c2ccc(-c3nnc(CCc4nnc(-c5ccc(-c6ccc(Cl)cc6)o5)o4)o3)o2)cc1`
Solution: 23.4 µM (inactive)

###

tested on: T47D; experiment: NCI tumour cell line growth inhibition, 48 h
Activity calls are given as the source filed them. No stated cut-off is given here; in the data, active = GI50 up to about 1.1 µM and inactive = higher.
Hi there, use one of these labels in your reply, thanks! 1 (yes) for active, 0 (no) for inactive

// known answers, use as guide
- compound: "CN(C)c1ccc(/C=c2\\c3cc([N+](=O)[O-])ccc3n3c2cc(-c2ccccc2)[n+]3C)cc1"
  label-value: "1 (yes)"
- compound: "O=C1C=C(Nc2cccnc2)c2ccccc2C1=O"
  label-value: "0 (no)"
- compound: "N#Cc1c(-c2ccccc2)cc(Nc2ccc(Cl)cc2)n2c1nc1ccccc12"
  label-value: "0 (no)"
- compound: "COc1ccc(NC(C)=O)cc1N1C(=O)/C(=C\\c2ccccc2)SC1c1cc(OC)c(OC)c(OC)c1 (stereo not given)"
  label-value: "0 (no)"
- compound: "Cc1ccc(S(=O)(=O)NNC(=S)Nc2cccc3ccccc23)cc1"
  label-value: "0 (no)"
- compound: "O=C1C2CC(Cl)C(SSC3CC4C(=O)N(SC(Cl)(Cl)C(Cl)Cl)C(=O)C4CC3Cl)CC2C(=O)N1SC(Cl)(Cl)C(Cl)Cl (stereo not given)"
  label-value: "0 (no)"
- compound: "COC1/C=C/C(C)C(C(C)C(OC)C(C)CCC(=O)C(C)C(CC(=O)O)OC)OC(=O)/C=C/C=C(\\C)CC(OC)CC2=CC(=O)O[C@H](C2)C(C)C(OC)CC(OC)/C=C/C(C)C(OC)C1 (stereo not given in full)"
  label-value: "0 (no)"
- compound: "COc1ccc2c(c1)N(CCC1CCCCN1C)c1ccccc1S2 (stereo not given)"
  label-value: "0 (no)"
- compound: "CCCC(CCN)(CCN)[N+](=O)[O-]"
  label-value: "0 (no)"

Now look at this entry.
Exercise: Each compound tested received a call. Report the one for `COc1ccc(C(=O)/C=C/c2ccc(O)c(O)c2)c(OC)c1` .
Solution: 0 (no)

Reference for the values: ChEMBL document CHEMBL1201862
